test: PET hydrolysis, aromatic products released after 48 h (umol product/mg enzyme); higher = more PET depolymerization activity; details: substrate: cryPow; 40 °C; pH 8.5
reported_endpoint: PET hydrolysis

Fill in the blank: the reported PET hydrolysis of AGFEKGPDPTTASVTADRGSYDIAQVDVPKGSGTGFADGTIYYPKSTADGTFGAVAVIPGFLEPKSAIDWYGPRLASQGFVVMTLDTTSVFDTPDSRGGQLLAALDYLTSKSTVKDRIDPNRLAVVGHSMGGGGTLSAAANRPNLKAAVALAPWHVSAPLTSVKTPTMIFGSDNDFIAPDGTFAKPFYDGISNAPEKAYVRLKNAGHMAYVFPDKRIAEYTLSWLKRYVDDDTRYTQFLCPGPTNESTIAAYKSTCPM [DP093] is ____.
< 3

Fill in the blank: the reported PET hydrolysis of QTNPYQKGPAPTVANLEAARGSFAVSSTSISSLSATGFGGGSLHYPTAAGTYGLIAVAPPYLAQSSSIAWLGPRLASHGFVVVMIDVNSTLDFPESRSRQQLAAIDYAIAQNARRTSPIYGKVDTTRRGVTGHSMGGGASILTARNSPANIKGAFPLTPWSSDKNFSNLQVPTGYLACQDDTVAGNADHSLNFYNRMPASTPKGYYELRGETHFCPQSTTNNPVIGKYLVAWMKRFVDNDTRFSPFLSGALPNADLSSGRFSVLRTSGL [DP075] is ____.
< 3

Fill in the blank: the reported PET hydrolysis of GQAAVPVAVAGTSAFAKGPDPTEQSIQAQRGPFATAQRTVPSEAGRAFNRGTVHYPTDTSHGTYGAVVVSPGFFGPEFSVAWYGSTLASHGFVVLTLETNFLFDQPDARATQLLAGLDWLAARSPVKDRVDPNRLAVMGHSMGGGGTLIAASRNPALKAAIPLTPWNTSPDFSTVTVPTLVLGTDNDTVAPVARHADPMYASLRDKPDEGYVKLRGDHFTPIRYTAAATRFIVPWLKRYVDEDTRYSRFLCPLPAPDATLVSFELRCPV [DP040] is ____.
< 3
